Listing: viability, T/C of selected molecules
Test system: LG0567-F671-PDC complex spheroids viability;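 further: spheroids exposed to compound for seven days before readout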
Assay: Anticancer human tumor LG0567-F671-PDC patient-derived lung adenocarcinoma cell line growth inhibition [RAS]
Conditions: second compound 0.316 µM; first compound 0.0316 µM; hits give low values
measured_metric: viability, T/C (%)

[[record]]
molecule = "CC(=O)OC12COC1CC(O)C1(C)C(=O)C(O)C3=C(C)C(OC(=O)C(O)C(NC(=O)OC(C)(C)C)c4ccccc4)CC(O)(C(OC(=O)c4ccccc4)C21)C3(C)C (centres undefined) + C#Cc1c(F)ccc2cc(O)cc(-c3ncc4c(N5CC6CCC(C5)N6)nc(OCC56CCCN5CC(F)C6)nc4c3F)c12"
measured_metric = "viability, T/C"
recorded_result = 34.9

[[record]]
molecule = "CC(=O)OC12COC1CC(O)C1(C)C(=O)C(O)C3=C(C)C(OC(=O)C(O)C(NC(=O)OC(C)(C)C)c4ccccc4)CC(O)(C(OC(=O)c4ccccc4)C21)C3(C)C (centres undefined) + C=CC(=O)N1CCN(c2nc(OCC3CCCN3C)nc3c(F)c(-c4nc(N)cc(C)c4C(F)(F)F)c(Cl)cc23)C(C)C1"
measured_metric = "viability, T/C"
recorded_result = 11.9

[[record]]
molecule = "C[C@@H](NC(=O)c1ncnc(N)c1Cl)c1ncc(C(=O)Nc2cc(C(F)(F)F)c(Cl)cn2)s1 + C#Cc1c(F)ccc2cc(O)cc(-c3ncc4c(N5CC6CCC(C5)N6)nc(OCC56CCCN5CC(F)C6)nc4c3F)c12"
measured_metric = "viability, T/C"
recorded_result = 73.5

[[record]]
molecule = "CC(C)n1nc(-c2ccc3oc(N)nc3c2)c2c(N)ncnc21 + C=CC(=O)N1CCN(c2nc(OCC3CCCN3C)nc3c(F)c(-c4nc(N)cc(C)c4C(F)(F)F)c(Cl)cc23)C(C)C1"
measured_metric = "viability, T/C"
recorded_result = 6.07


Data provenance is PubChem BioAssay AID2060889.
